Data provenance is patent US20160159774A1.

Quick list: pEC50 per entry.
target: BTK in Ramos human Burkitt lymphoma cells (Homo sapiens, UniProt Q06187); construct: Compounds of this invention were assayed in Ramos human Burkitt lymphoma cells; endogenous in cells; experiment: BTK Ramos cellular assay (BTK occupancy); details: concentration producing 50% occupancy of BTK, 1 hour incubation with compound
Sequence (Q06187 whole entry): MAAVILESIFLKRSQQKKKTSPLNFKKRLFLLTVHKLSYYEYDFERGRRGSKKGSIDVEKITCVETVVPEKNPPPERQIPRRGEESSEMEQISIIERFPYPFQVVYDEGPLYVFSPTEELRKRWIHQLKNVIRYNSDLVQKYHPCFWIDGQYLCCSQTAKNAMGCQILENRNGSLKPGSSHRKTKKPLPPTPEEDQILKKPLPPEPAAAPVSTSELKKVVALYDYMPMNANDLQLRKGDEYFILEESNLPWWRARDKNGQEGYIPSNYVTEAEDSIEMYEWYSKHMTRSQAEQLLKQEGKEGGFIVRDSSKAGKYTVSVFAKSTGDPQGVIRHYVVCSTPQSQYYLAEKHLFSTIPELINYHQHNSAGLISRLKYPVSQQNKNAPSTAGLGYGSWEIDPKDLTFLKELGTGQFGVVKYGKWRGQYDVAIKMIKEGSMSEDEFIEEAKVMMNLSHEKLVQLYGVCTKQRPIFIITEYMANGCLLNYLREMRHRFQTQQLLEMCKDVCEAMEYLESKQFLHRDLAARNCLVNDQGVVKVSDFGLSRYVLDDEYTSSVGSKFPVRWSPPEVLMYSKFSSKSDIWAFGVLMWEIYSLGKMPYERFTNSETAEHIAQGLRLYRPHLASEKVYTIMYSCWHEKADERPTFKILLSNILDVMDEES
pEC50: −log10 of the molar value.
PROPERTY: pEC50

C=CC(=O)N1CCC[C@@H](Nc2nc(Nc3ccc4c(c3)CN(C3CCN(C(C)=O)CC3)C4)ncc2F)C1: 7.00 to 8.00
C=CC(=O)N1CCC[C@@H](Nc2nc(Nc3ccc4c(c3)CN(C)C4=O)ncc2F)C1: 7.00 to 8.00
C=CC(=O)N1CCC[C@@H](Nc2nc(Nc3ccc4c(c3)CN(C3CCC3)CC4)ncc2F)C1: > 8.00
C=CC(=O)N1CCC[C@@H](Nc2nc(Nc3ccc4c(c3)CN(C3CC3)CC4)ncc2F)C1: > 8.00
C=CC(=O)N1CCC[C@@H](Nc2nc(Nc3ccc4c(c3)CCN(C(C)C)C4)ncc2F)C1: 7.00 to 8.00
C=CC(=O)N1CCC[C@@H](Nc2nc(Nc3ccc4c(c3)CCN(C(C)(C)C)C4)ncc2F)C1: > 8.00
C=CC(=O)N1CCC[C@@H](Nc2nc(Nc3cc(F)c4c(c3)CN(C)C4)ncc2F)C1: 6.00 to 7.00

---

biological target: BTK in Ramos human Burkitt lymphoma cells (Homo sapiens); construct: Compounds of this invention were assayed in Ramos human Burkitt lymphoma cells; endogenous in cells; assay: BTK Ramos cellular assay (BTK occupancy); conditions: concentration producing 50% occupancy of BTK, 1 hour incubation with compound
pEC50: −log10 of the molar value.
Items are presented alongside their recorded pEC50.
PROPERTY: pEC50

[2H]C([2H])([2H])N1Cc2ccc(Nc3ncc(F)c(N[C@@H]4CCCN(C(=O)C=C)C4)n3)cc2C1: > 8.00
C=CC(=O)N1CCC[C@@H](Nc2nc(Nc3ccc4c(c3)CN(CC3COC3)CC4)ncc2F)C1: > 8.00
C=CC(=O)N1CCC[C@@H](Nc2nc(Nc3ccc4c(c3)CN(CC3CC3)C4)ncc2F)C1: > 8.00
C=CC(=O)N1CCC[C@@H](Nc2nc(Nc3ccc4c(c3)CN(C3COC3)C4)ncc2F)C1: 7.00 to 8.00
C=CC(=O)N1CCC[C@@H](Nc2nc(Nc3ccc4c(c3)CN(CCOC)C4)ncc2F)C1: 7.00 to 8.00
C=CC(=O)N1CCC[C@@H](Nc2nc(Nc3ccc4c(c3)CN(CC3COC3)CCC4)ncc2F)C1: 7.00 to 8.00
C=CC(=O)N1CCC[C@@H](Nc2nc(Nc3ccc4c(c3)CCCN(C3CC3)C4)ncc2F)C1: 7.00 to 8.00
C=CC(=O)N1CCC[C@@H](Nc2nc(Nc3ccc4c(c3)C(C)(C)N(C)C4(C)C)ncc2F)C1: 7.00 to 8.00
C=CC(=O)N1CCC[C@@H](Nc2nc(Nc3ccc4c(c3)CN(c3ccc(F)cc3)C4)ncc2F)C1: 6.00 to 7.00
C=CC(=O)N1CCC[C@@H](Nc2nc(Nc3ccc4c(c3)CNCC4)ncc2F)C1: > 8.00
C=CC(=O)N1CCC[C@@H](Nc2nc(Nc3ccc4c(c3)CCN(C3CC3)CC4)ncc2F)C1: 7.00 to 8.00
C=CC(=O)N1CCC[C@@H](Nc2nc(Nc3ccc4c(c3)CN(CCO)C4)ncc2F)C1: > 8.00
C=CC(=O)N1CCC[C@@H](Nc2nc(Nc3ccc4c(c3)CN(C3CCNCC3)C4)ncc2F)C1: 6.00 to 7.00
C=CC(=O)N1CCC[C@@H](Nc2nc(Nc3ccc4c(c3)CN(C3CC3)C4)ncc2F)C1: 7.00 to 8.00
C=CC(=O)N1CCC[C@@H](Nc2nc(Nc3ccc4c(c3)CNCCC4)ncc2F)C1: > 8.00
C=CC(=O)N1CCC[C@@H](Nc2nc(Nc3ccc4c(c3)CN(CC3CC3)CC4)ncc2F)C1: > 8.00

---

PROPERTY: melting point

C=CC(=O)N1CCC[C@@H](Nc2nc(Nc3ccc4c(c3)CN(C3CC3)CC4)ncc2F)C1 [Compound I-48]: 105 to 107 °C
C=CC(=O)N1CCC[C@@H](Nc2nc(Nc3ccc4c(c3)CCN(CC3COC3)CC4)ncc2F)C1 [Compound I-59]: 104 to 106 °C
C=CC(=O)N1CCC[C@@H](Nc2nc(Nc3ccc4c(c3)CN(CC3CC3)CC4)ncc2F)C1 [Compound I-47]: 80 to 82 °C

---

target: BTK in Ramos human Burkitt lymphoma cells (Homo sapiens, UniProt Q06187); construct: Compounds of this invention were assayed in Ramos human Burkitt lymphoma cells; endogenous in cells; assay: BTK Ramos cellular assay (BTK occupancy); settings: concentration producing 50% occupancy of BTK, 1 hour incubation with compound
Attribute: EC50
PROPERTY: EC50

C=CC(=O)N1CCC[C@@H](Nc2nc(Nc3ccc4c(c3)CN(CC(C)(C)C)C4)ncc2F)C1: 10 to 100 nM
C=CC(=O)N1CCC[C@@H](Nc2nc(Nc3ccc4c(c3)CCN(CC3COC3)CC4)ncc2F)C1: < 10 nM
C=CC(=O)N1CCC[C@@H](Nc2nc(Nc3ccc4c(c3)CCN(C)CC4)ncc2F)C1: < 10 nM
C=CC(=O)N1CCC[C@@H](Nc2nc(Nc3ccc4c(c3)CN(CC3CCNCC3)C4)ncc2F)C1: 101 to 1000 nM

---

target: BTK in Ramos human Burkitt lymphoma cells (Homo sapiens); construct: Compounds of this invention were assayed in Ramos human Burkitt lymphoma cells; endogenous in cells; assay: BTK Ramos cellular assay (BTK occupancy); settings: concentration producing 50% occupancy of BTK, 1 hour incubation with compound
Reported EC50 is given for each of the following compounds.
PROPERTY: EC50

C=CC(=O)N1CCC[C@@H](Nc2nc(Nc3ccc4c(c3)CN(CC3COC3)C4)ncc2F)C1: 10 to 100 nM
C=CC(=O)N1CCC[C@@H](Nc2nc(Nc3ccc4c(c3)CN(C3COC3)CC4)ncc2F)C1: < 10 nM
C=CC(=O)N1CCC[C@@H](Nc2nc(Nc3ccc4c(c3)CCN(C(C)=O)C4)ncc2F)C1: 10 to 100 nM
C=CC(=O)N1CCC[C@@H](Nc2nc(Nc3ccc4c(c3)CN(C(C)=O)C4)ncc2F)C1: 101 to 1000 nM
C=CC(=O)N1CCC[C@@H](Nc2nc(Nc3ccc4c(c3)CN(C(C)(C)C)CC4)ncc2F)C1: 10 to 100 nM
C=CC(=O)N1CCC[C@@H](Nc2nc(Nc3ccc4c(c3)CCN(CC3COC3)C4)ncc2F)C1: < 10 nM
C=CC(=O)N1CCC[C@@H](Nc2nc(Nc3ccc4c(c3)CN(CC3CCN(C)CC3)C4)ncc2F)C1: < 10 nM
C=CC(=O)N1CCC[C@@H](Nc2nc(Nc3ccc4c(c3)CNC4)ncc2F)C1: 10 to 100 nM
C=CC(=O)N1CCC[C@@H](Nc2nc(Nc3ccc4c(c3)CN(C)CCC4)ncc2F)C1: 10 to 100 nM
C=CC(=O)N1CCC[C@@H](Nc2nc(Nc3ccc4c(c3)CCCN(C)C4)ncc2F)C1: < 10 nM
C=CC(=O)N1CCC[C@@H](Nc2nc(Nc3ccc4c(c3)CNC4)ncc2C(F)(F)F)C1: < 10 nM
C=CC(=O)N1CCC[C@@H](Nc2nc(Nc3ccc4c(c3)CN(C3CCOCC3)C4)ncc2F)C1: 10 to 100 nM
C=CC(=O)N1CCC[C@@H](Nc2nc(Nc3ccc4c(c3)CN(C3(C)CCOCC3)C4)ncc2F)C1: < 10 nM
C=CC(=O)N1CCC[C@@H](Nc2nc(Nc3ccc4c(c3)CN(C3CCC3)C4)ncc2F)C1: < 10 nM
C=CC(=O)N1CCC[C@@H](Nc2nc(Nc3ccc4c(c3)CN(C)C4)ncc2F)C1: < 10 nM
C=CC(=O)N1CCC[C@@H](Nc2nc(Nc3ccc4c(c3)CCN(C3CC3)C4)ncc2F)C1: 10 to 100 nM
C=CC(=O)N1CCC[C@@H](Nc2nc(Nc3ccc4c(c3)CCNCC4)ncc2F)C1: 10 to 100 nM
C=CC(=O)N1CCC[C@@H](Nc2nc(Nc3ccc4c(c3)CCN(C3COC3)C4)ncc2F)C1: < 10 nM
C=CC(=O)N1CCC[C@@H](Nc2nc(Nc3ccc4c(c3)C(=O)N(C)C4=O)ncc2F)C1: 10 to 100 nM
C=CC(=O)N1CCC[C@@H](Nc2nc(Nc3ccc4c(c3)C(=O)N(C)C4)ncc2F)C1: 101 to 1000 nM
C=CC(=O)N1CCC[C@@H](Nc2nc(Nc3ccc4c(c3)CCN(C3CCC3)C4)ncc2F)C1: < 10 nM
C=CC(=O)N1CCC[C@@H](Nc2nc(Nc3ccc4c(c3)CN(CC3CCOCC3)C4)ncc2F)C1: < 10 nM
C=CC(=O)N1CCC[C@@H](Nc2nc(Nc3ccc4c(c3)CCNC4)ncc2F)C1: 10 to 100 nM
C=CC(=O)N1CCC[C@@H](Nc2nc(Nc3ccc4c(c3)CN(CC(N)=O)C4)ncc2F)C1: < 10 nM
C=CC(=O)N1CCC[C@@H](Nc2nc(Nc3ccc4c(c3)CN(C)CC4)ncc2F)C1: < 10 nM
C=CC(=O)N1CCC[C@@H](Nc2nc(Nc3ccc4c(c3)CN(C(C)(C)C)C4)ncc2F)C1: < 10 nM
C=CC(=O)N1CCC[C@@H](Nc2nc(Nc3ccc4c(c3)CCCN(C)C4=O)ncc2F)C1: 10 to 100 nM
C=CC(=O)N1CC2(CC(Nc3nc(Nc4ccc5c(c4)CN(C)C5)ncc3F)C2)C1: < 10 nM
C=CC(=O)N1CCC[C@@H](Nc2nc(Nc3ccc4c(c3)CN(C3CCN(C)CC3)C4)ncc2F)C1: 10 to 100 nM
C=CC(=O)N1CCC[C@@H](Nc2nc(Nc3ccc4c(c3)CCN(CC3CC3)C4)ncc2F)C1: < 10 nM
C=CC(=O)N1CCC[C@@H](Nc2nc(Nc3ccc4c(c3)CN(CC(F)(F)F)C4)ncc2F)C1: 10 to 100 nM
